# MEASUREMENT TARGET: UniProt:P23141
# Sequence (P23141 whole entry): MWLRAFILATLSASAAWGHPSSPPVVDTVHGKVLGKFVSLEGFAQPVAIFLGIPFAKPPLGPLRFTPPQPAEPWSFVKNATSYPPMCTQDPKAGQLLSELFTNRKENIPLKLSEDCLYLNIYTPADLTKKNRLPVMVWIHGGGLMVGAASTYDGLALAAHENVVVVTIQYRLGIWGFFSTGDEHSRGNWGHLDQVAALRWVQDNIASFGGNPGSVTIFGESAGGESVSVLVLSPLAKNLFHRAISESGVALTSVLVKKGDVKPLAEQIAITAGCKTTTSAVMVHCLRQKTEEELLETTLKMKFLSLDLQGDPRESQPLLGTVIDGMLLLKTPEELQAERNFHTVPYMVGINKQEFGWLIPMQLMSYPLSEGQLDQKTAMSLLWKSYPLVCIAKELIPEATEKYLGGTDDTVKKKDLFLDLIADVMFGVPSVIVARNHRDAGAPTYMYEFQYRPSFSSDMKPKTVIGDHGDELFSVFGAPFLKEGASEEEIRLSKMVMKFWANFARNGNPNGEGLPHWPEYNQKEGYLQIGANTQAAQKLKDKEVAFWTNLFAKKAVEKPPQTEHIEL
# METHOD SUMMARY: Inhibition of human recombinant carboxylesterase 1 after 15 mins
VALUE TYPE: IC50 (nM)

The following molecules have reported results that may help.
CCCCCCCCSCC(=O)C(F)(F)F    13
CCCCCCCCS(=O)(=O)CC(=O)C(F)(F)F    5.4

a. CCCCCCCC[S+]([O-])CC(=O)C(F)(F)F (centres undefined)
b. CCCCCCCCCCC(=O)C(F)(F)F
input: Which has the higher IC50, a or b ? // respond with label for picked entry
output: b

----------
# MEASUREMENT TARGET: Liver carboxylesterase (Sus scrofa, UniProt Q29550)
# Sequence (Q29550 whole entry): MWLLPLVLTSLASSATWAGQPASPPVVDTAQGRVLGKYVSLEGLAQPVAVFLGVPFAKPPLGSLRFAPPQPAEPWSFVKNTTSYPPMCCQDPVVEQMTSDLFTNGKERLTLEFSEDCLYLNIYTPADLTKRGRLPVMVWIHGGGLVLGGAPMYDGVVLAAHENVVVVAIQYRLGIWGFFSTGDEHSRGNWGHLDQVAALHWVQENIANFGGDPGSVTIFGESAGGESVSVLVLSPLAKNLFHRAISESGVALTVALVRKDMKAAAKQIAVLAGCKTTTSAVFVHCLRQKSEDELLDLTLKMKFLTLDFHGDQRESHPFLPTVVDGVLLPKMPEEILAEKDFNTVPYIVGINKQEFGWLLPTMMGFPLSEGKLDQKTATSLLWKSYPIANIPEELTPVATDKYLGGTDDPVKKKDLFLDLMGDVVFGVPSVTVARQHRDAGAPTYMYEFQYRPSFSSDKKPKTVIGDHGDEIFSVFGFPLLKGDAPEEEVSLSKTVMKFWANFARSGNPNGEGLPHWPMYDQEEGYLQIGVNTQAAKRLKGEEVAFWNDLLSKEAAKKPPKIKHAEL
# METHOD SUMMARY: Inhibition of pig liver carboxylesterase after 15 mins
pIC50: −log10 of the molar value.
VALUE TYPE: pIC50

Known pIC50 results, listed for orientation:
CCCCCCCCS(=O)(=O)CC(=O)C(F)(F)F    6.34
CCCCCCCCCC[S+]([O-])CC(=O)C(F)(F)F (stereo unspecified)    8.49
CCCCCCS(=O)(=O)CC(=O)C(F)(F)F    7.00
CCCCCCCCCCCCS(=O)(=O)CC(=O)C(F)(F)F    7.34
CCCCCCCCCCC(=O)C(F)(F)F    8.03
CCCCCCCCCCCCSCC(=O)C(F)(F)F    8.28

a. CCCCCCCC[S+]([O-])CC(=O)C(F)(F)F (stereo unspecified)
b. O=C(C(=O)c1ccccc1)c1ccccc1 [BENZIL]
c. CCCCCCCCCCCC[S+]([O-])CC(=O)C(F)(F)F (stereo unspecified)
input: Reorder: pIC50, max to min. Your answer should be the labels, listed in the requested order.
output: c, a, b
